Known growth inhibition of a selection of compounds
- experimental protocol: NCI Yeast Anticancer Drug Screen. Data for the mlh1 rad18 strain (AID 175)
- conditions used: S. cerevisiae mlh1 rad18 strain growth inhibition; at 5.0 µM (retest, dose inferred, filed as 0.5); active compounds read high
- Method: Growth inhibition of yeast strains with defined genetic alterations is measured as a screen for potential anti-cancer activity. Selected strains with alterations in DNA damage repair or cell cycle control were exposed to compounds and growth inhibition was measured relative to vehicle treated controls. The strain used in this assay is mlh1 rad18
This is part of a sample that, as a whole, favours compounds with a hit. Of some 79,000 tested, about 15% had one in any assay.
measure: growth inhibition (%)

• CC(=O)Nc1ccc(NC(=S)Nc2ccc(NC(C)=O)cc2)cc1 = 82
• COc1cc(/C=C/C2=C(C)C(=O)CC(c3cc(OC)c(OC)c(OC)c3)C2C)cc(OC)c1OC (centres undefined) = 0
• C=CC(=O)Oc1ccccc1/C=C/C(=O)CCCCCC = 4
• N=C(N)SCc1nc(-c2ccc(Cl)cc2)no1 = -10
• Cc1c(O)c2c(c(O)c1Br)C(=O)C=CC2=O = 96
• CC(C)C1/C(=N/O)CC(c2ccccc2)N(N=O)C1c1ccccc1 (centres undefined) = -6
• CCCC1(C)C(C#N)(C#N)C1(C#N)C#N = 99
• NC(=S)c1cccc(C2Nc3ccccc3O2)c1 (centres undefined) = 37
• CCOC(=O)Nc1cc(NC(C)/C(=N/O)c2ccccc2)c([N+](=O)[O-])c(N)n1 (centres undefined) = -5
• Cc1ccc(S(=O)(=O)C(=S)Sc2ccccc2)cc1 = 11
• C1=Nc2ccccc2C=Nc2ccccc2C=Nc2ccccc2C=Nc2ccccc21.[Cl-].[Pt+2] = 63
• O=C(O)COc1ccccc1C(=O)O = 1
• CCN1C(Cl)=NS(=O)(=O)c2ccccc21 = 25
• CCc1cccc(C(C)(C)C)c1NC(=S)/N=C/C(C(=O)c1ccccc1)=C(\O)c1ccccc1 = -4
• COc1ccc(C2COc3cc(OC(C)=O)c(OC(C)=O)cc3C2)cc1 (centres undefined) = -3
• CCOC(=O)c1ccc(N=Cc2cc(Cl)cc(Cl)c2O)cc1 = 52
• Cc1ccsc1C(=S)Nc1ccc(Cl)c(/C=N/OC(C)C)c1 = 12
• CCCc1cc2c(cc1CN(C#N)Cc1cc3c(cc1CCC)OCO3)OCO2 = -1
• C[C@]12CC[C@H](O)C[C@@H]1CC[C@@H]1[C@@H]2CC[C@]2(C)C=CC[C@@H]12 = -24
• C[Si](C)(C)CN1C(=O)c2ccccc2C1(O)c1ccccc1 (centres undefined) = -1
• CCOC(=O)C(C(=O)OCC)C(=O)c1ccc2c(c1)OCO2 = 4
• Cc1c(N)nc(C2CC(=O)N2CC(N)C(N)=O)nc1C(=O)NC(C(=O)NC(C)C(O)C(C)C(=O)NC(C(=O)NCCc1nc(-c2nc(C(=O)NCCCNC3CCCC3)cs2)cs1)C(C)O)C(OC1OC(CO)C(O)C(O)C1OC1OC(CO)C(O)C(OC(N)=O)C1O)c1cnc[nH]1 (centres undefined) = 98
• OC(c1ccccc1)(c1ccccc1)c1ccc[cH-]1.OC(c1ccccc1)(c1ccccc1)c1ccc[cH-]1.[Fe+2] = 1
• O=C1C=CC(=O)N1c1ccccc1[N+](=O)[O-] = 98
• [N-]=[N+]=Nc1c(C=O)c(=O)n(-c2ccccc2)c2ccccc12 = 6
• Oc1ccc(C/C=C/c2ccccc2)cc1O = 9
• CCCCCCCCCc1cc(O)c(O)cc1CCCCCCCCC = -2
• CCS(=O)(=O)c1ccc(NC(=O)OC2CC(C)CCC2C(C)C)cc1 (centres undefined) = 20
• C/C=C/C=N/N(c1nnc(-c2ccccc2)c(-c2ccccc2)n1)S(=O)(=O)c1ccc(C)cc1 = 34
• CC(C)OP(=O)(CCCCCCCCC/C=C/c1ccc2c(c1)OCCOCCOCCOCCO2)OC(C)C = 24
• CCCCC(Cc1ccccc1)(C(=O)O)c1ccccc1 (centres undefined) = 14
• N#Cc1cccc2c1Sc1ccccc1N2 = -7
• O=C(O)c1cc(C(=O)O)c(C(=O)O)cc1C(=O)O.[NH-]C1CCCC1.[NH-]C1CCCC1.[NH-]C1CCCC1.[NH-]C1CCCC1.[Pt+2].[Pt+2] = 16
• COc1cc2c(cc1O)CCCCC2 = -3
• Cn1c(=O)nc2n(-c3ccc(Cl)cc3)c3cc(Cl)ccc3nc-2c1=O = 7
• CC(NNC(=S)N1CCCC1)c1ccccn1 (centres undefined) = 60
• CC1=NC(C)C(C)S1 (centres undefined) = 2
• Cc1c(Cl)cc2[nH]c(C(F)(F)F)nc2c1Cl = 3
• O/N=C1/CCCC/C1=C/c1ccc(Cl)cc1 = -144
• COc1ccc(CCC2(C)OCCC(C)O2)cc1 (centres undefined) = 19
• COc1ccc(C)c2nc3ccccc3nc12 = -110
• CC(=O)N(C)c1cc(NCc2ccccc2)ccc1OCc1ccccc1 = -1
• CCCCCCCCCCCCOc1c(Cl)cc(Cl)c(Cl)c1Cc1c(O)c(Cl)cc(Cl)c1Cl = 2
• c1ccc(-n2ncc3ccc4cccn4c32)cc1 = 12

Numbers sourced from PubChem BioAssay (NCI).
